Test system: MCF7 breast
Assay protocol: NCI-60 one-dose screen, 48 h (100 = growth as untreated, 0 = no growth, -100 = all killed)
Condition details: 10 µM unless noted
Compounds without any hit were thinned out: in the full panel of roughly 83,000, 20% have a hit.
Output: class label from growth. Mapping: zone 1 (below 10%), zone 2 (10% to below 60%), zone 3 (60% or more)

Look over these answered cases.
{"columns": ["Compound", "Category"],
 "data": [
  ["CN1C2CCC1/C(=C\\c1ccc(Cl)cc1)C1=C2[C@@H](c2ccc(Cl)cc2)C(C#N)=C(N)O1 (stereo not given in full)", "zone 3"],
  ["O=C(/C=C/c1cccc(Br)c1)c1ccccc1", "zone 2"],
  ["O=C(Nc1ccc(Oc2ccc(F)cc2)c(Cl)c1)c1cccnc1", "zone 3"],
  ["O=C1/C(=C/c2ccccc2)CN(CCC(=O)N2C/C(=C\\c3ccccc3)C(=O)/C(=C/c3ccccc3)C2)C/C1=C\\c1ccccc1", "zone 1"],
  ["COc1ccc(Cl)cc1Nc1nc(C(F)(F)F)ccc1C(=O)N/N=C/c1cccnc1", "zone 2"],
  ["CSc1ccc(N=C=C(c2ccccc2)c2ccccc2)cc1", "zone 3"],
  ["Cc1cc2c(cc1C)NC1=C(N2)OC(c2c3ccccc3cc3ccccc23)C1=O (stereo not given)", "zone 1"],
  ["COc1cc(-c2cc(-c3nc4ccc(Cl)cc4[nH]3)[nH]n2)cc(OC)c1OC", "zone 2"]
]}

Please examine the following record next.
q: Pick a category. Item: CNC(=S)N/N=C/CSC/C=N/NC(=S)NC
a: zone 1

----------
Tested on: MALME-3M melanoma
Assay protocol: NCI-60 one-dose screen, 48 h (100 = growth as untreated, 0 = no growth, -100 = all killed)
Condition details: 10 µM unless noted
Method: Cells are grown in 96 well plates and exposed to the test compound for 48 hours. Compounds are tested at a single concentration, which is 10^-5 M for most compounds. The reported endpoint is percent growth (GI% or GIPRCNT), where numbers from 0 - 100% represent growth inhibition, and numbers from -100% - 0 represent cell death. For example, a value of 40 represents 60% growth inhibition. A value of 0 means no net growth occurred over the course of the experiment. […]
About 83,000 compounds went through this panel and 20% of them were active in at least one assay; those are over-represented in the sample as a whole.
Below, each entry is listed alongside its reported growth.
Give your result in % as a bare value.

Answered cases to consult:
{"columns": ["Compound", "growth [%]"],
 "data": [
  ["Nc1c(C(=O)Nc2cccc3c2OCCO3)sc2nc3c(cc12)C(=O)CCC3", 56.8],
  ["COc1ccc(/C=C/C(=O)c2ccc(NC(=O)c3cc4cc5ccccc5nc4s3)cc2)cc1OC", 98.6],
  ["C[C@@H]1CC[C@@H]2[C@@H]1[C@H](OC(=O)/C=C/c1ccccc1)[C@]1(C3CCCCC3)C[C@@H](OC(=O)CO)[C@@]2(C)O1", 104],
  ["CC(=O)OCC1OC(OC2=C(CC=C(Cl)Cl)C(=O)c3ccccc3C2=O)C(OC(C)=O)C(OC(C)=O)C1OC(C)=O (stereo not given)", 51.6]
]}

q: Can you look up the measured growth of CC1=NNC(=O)C1C (stereo not given) for me?
a: 467

----------
System: SF-268 CNS
Assay protocol: NCI-60 one-dose screen, 48 h (100 = growth as untreated, 0 = no growth, -100 = all killed)
Condition details: 10 µM unless noted
This is part of a sample that, as a whole, favours compounds with a hit. Of some 83,000 tested, about 20% had one in any assay.
Output: class label from growth. Mapping: Low (below 40%), Mid (40% to below 90%), High (90% or more)

{"columns": ["Compound", "Category"],
 "data": [
  ["Cc1ccc2cnc(N)c(C#Cc3cncc(C(=O)Nc4ccc(CN5CCN(C)CC5)c(C(F)(F)F)c4)c3)c2c1", "Low"],
  ["Cc1ccccc1CCO", "High"],
  ["COc1ccc(C(=O)c2sc3nc(-c4ccccc4OC)ccc3c2N)cc1OC", "Mid"],
  ["CCN(CC)CC(O)c1cc(-c2ccc(Cl)cc2)nc2c(C)c(Cl)ccc12 (stereo not given)", "Low"],
  ["CCCCOc1ccc(NC(=O)n2nc(NC(C)=O)c3cc(NC(C)=O)ccc32)cc1", "High"],
  ["Cn1c2ccccc2c2c3[nH]c(=O)[nH]c(=O)c3c3c4ccccc4n(C)c3c21", "Low"],
  ["NC1=CC(=O)C(=O)c2ccccc21", "High"],
  ["COc1cccc(-c2nc3sccn3c2-c2ccnc(NCCCNS(=O)(=O)c3ccc(Cl)cc3)c2)c1", "Mid"],
  ["COc1cccc(/C=C2/C(=O)N(Cc3ccco3)SC2=S)c1OC", "High"]
]}

Please examine the following record next.
q: Pick a category. Item: COc1nc2c(cc1S(=O)(=O)c1ccccc1)CCc1c-2cnn1Cc1ccccc1
a: Mid

----------
Tested on: SF-295 CNS
Assay protocol: NCI-60 one-dose screen, 48 h (100 = growth as untreated, 0 = no growth, -100 = all killed)
Condition details: 10 µM unless noted
The panel holds about 83,000 compounds, 20% with a hit somewhere; the sample as a whole holds those more often.
# cutoff 80% applies to growth; >= gives 1 (yes), < gives 0 (no)

q: Check if growth >= 80% (inclusive). Item: COc1cc(NC(N)=NCC(C)(C)COc2ccc(C(F)(F)F)cc2)cnc1C#N
a: 1 (yes)

q: Check if growth >= 80% (inclusive). Item: COc1cc(-c2cnc3nonc3n2)c(OC)c2c1OCO2
a: 1 (yes)

q: Check if growth >= 80% (inclusive). Item: COc1cc2nc3cc([N+](=O)[O-])ccc3c(NCCCNCC(C)(C)O)c2cc1OC
a: 0 (no)

q: Check if growth >= 80% (inclusive). Item: CC/C=C\C[C@H](O)C/C=C1/C(=O)C=C[C@@H]1C/C=C\CCCC(=O)NC(C)C
a: 0 (no)

----------
Tested on: NCI-H23 lung
Assay protocol: NCI-60 one-dose screen, 48 h (100 = growth as untreated, 0 = no growth, -100 = all killed)
Condition details: 10 µM unless noted
Compounds without any hit were thinned out: in the full panel of roughly 83,000, 20% have a hit. Activity calls are given as the source filed them. How the source made its calls: active means growth percent below 10; inactive means the rest.
Measured quantity: growth

{"columns": ["Compound", "growth"],
 "data": [
  ["C/C=C/C(N)=O", "96.9% (inactive)"],
  ["COc1ccc(C2c3ccc4ccccc4c3Oc3ncnc(N)c32)cc1 (centres undefined)", "83% (inactive)"],
  ["COc1cc(OC)c(/C=C/S(=O)(=O)Cc2cnc(OC)c(N)c2)c(OC)c1", "30.8% (inactive)"],
  ["c1ccc2sc(SCCCn3ccnc3)nc2c1", "81.4% (inactive)"]
]}

q: Value wanted: growth (NCI-H23 lung) of entry C=C1CC[C@@H]2[C@](C)(COC(C)=O)[C@H](OC(C)=O)CC[C@@]2(C)[C@@H]1CC(Nc1ccc(S(=O)(=O)Nc2nc(C)cc(C)n2)cc1)C1=CCOC1=O (some centres undefined)
a: 84.3% (inactive)

q: Value wanted: growth (NCI-H23 lung) of entry CCN(CC)CCCC(C)NCCCNc1cccc2cccnc12 (centres undefined)
a: 92.8% (inactive)

q: Value wanted: growth (NCI-H23 lung) of entry Nc1cc2nc3ccccc3sc-2cc1=O
a: 50% (inactive)

q: Value wanted: growth (NCI-H23 lung) of entry COC1/C=C\OC2(C)Oc3c(C)c(O)c4c(O)c(c(CN(C)CCO)c(O)c4c3C2=O)NC(=O)/C(C)=C\C=C/C(C)C(O)C(C)C(O)C(C)C(OC(C)=O)C1C (centres undefined)
a: 91.9% (inactive)

q: Value wanted: growth (NCI-H23 lung) of entry CC1CN(Cc2ccco2)C(=S)N(c2ccccc2)C1=O (centres undefined)
a: 108% (inactive)

----------
System: COLO 205 colon
Assay protocol: NCI-60 one-dose screen, 48 h (100 = growth as untreated, 0 = no growth, -100 = all killed)
Condition details: 10 µM unless noted
About 83,000 compounds went through this panel and 20% of them were active in at least one assay; those are over-represented in the sample as a whole.
# cutoff 80% applies to growth; >= gives Yes, < gives No

Look over these answered cases.
{"columns": ["Compound", "Test system", "Category"],
 "data": [
  ["O=C(COc1cccc(/C=C2/Oc3ccccc3C2=O)c1)Nc1nccs1", "COLO 205 colon", "Yes"],
  ["CCCCNc1ccc2c3c1cccc3c(=O)n1c3ccccc3nc21", "COLO 205 colon", "Yes"],
  ["NC1=CC(=O)C(=O)c2ccccc21", "COLO 205 colon", "Yes"],
  ["CC(=O)OCC1OC(OC2=C(CC=C(Cl)Cl)C(=O)c3ccccc3C2=O)C(OC(C)=O)C(OC(C)=O)C1OC(C)=O (stereo not given)", "COLO 205 colon", "Yes"],
  ["Cn1c2ccccc2c2c3c(c4c5ccccc5[nH]c4c21)C(=O)N(N)C3=O", "COLO 205 colon", "No"]
]}

q: Check if growth >= 80% (inclusive). Item: COc1ccc(CCN2CC=Cn3c2nc2ccccc2c3=O)cc1
a: No

q: Check if growth >= 80% (inclusive). Item: O=c1c2cccc3c(NC4CCCCC4)ccc(c32)c2nc3ccccc3n12
a: No
